Test system: C2O4^2− transport, MDCK cells
METHOD: In vitro litholytic activity: C2O4^2− transport inhibition, Transwell chamber with MDCK cells
Assay type: cell-based, canine
PARTICULARS: Canis lupus familiaris; 100 μmol/L, MDCK cells in Transwell; mean ± SD of three replicates; read-out: Transport Inhibition Rate (%) C2O4^2−
QUANTITY_NAME: inhibition at 100 µM (%)
Answer with a number only, understood to be in %.

Here's what some known entries look like.
- MOLECULE: "COC(=O)c1c(C)cc(OC(=O)c2c(C)cc(OC)c(C)c2O)c(C)c1O [Compound 6b]"
  inhibition at 100 µM (%): -4.25
- MOLECULE: "C=CCOc1cc(C)c(C(=O)Oc2cc(C)c(C(=O)OCc3ccccc3)c(O)c2C)c(O)c1C [6i′]"
  inhibition at 100 µM (%): 11.4
- MOLECULE: "Cc1cc(OCc2ccccc2)c(C)c(O)c1C(=O)Oc1cc(C)c(C(=O)OCc2ccccc2)c(O)c1C [6p′]"
  inhibition at 100 µM (%): 7.16
- MOLECULE: "C=CCOC(=O)c1c(C)cc(OC(=O)c2c(C)cc(OCCC)c(C)c2O)c(C)c1O [Compound 6r]"
  inhibition at 100 µM (%): 9.67
- MOLECULE: "CCCOC(=O)c1c(C)cc(OC(=O)c2c(C)cc(OCCC)c(C)c2O)c(C)c1O [Compound 6q]"
  inhibition at 100 µM (%): -26
- MOLECULE: "COc1cc(C)c(C(=O)Oc2cc(C)c(C(=O)OC(C)C)c(O)c2C)c(O)c1C [Compound 6e]"
  inhibition at 100 µM (%): -2.05
- MOLECULE: "CCOC(=O)c1c(C)cc(OC(=O)c2c(C)cc(OCC)c(C)c2O)c(C)c1O [Compound 6i]"
  inhibition at 100 µM (%): 54

Now turn to the next molecule.
Problem: Write down inhibition at 100 µM measured for item COC(=O)c1c(C)cc(OC(=O)c2c(C)cc(OCc3ccccc3)c(C)c2O)c(C)c1O [6j′]
Result: -1.79
